Where do the numbers come from? From patent US20130261165A1.

Recorded fold induction at 10 µM, one value per entry.
tested on: FoxA2; assay: FoxA2 mRNA expression by qPCR in primary ventral midbrain cultures; conditions: Mus musculus, 24 h, read-out: Fold Increase in FoxA2 Expression
Counter-ions that a name gives are not always drawn.
API doc: respond with a numeric literal and nothing else, no unit.

Please review the following examples before continuing.
compound	assay-target	meas-value
Cn1cc[nH]c1=S	FoxA2	1.97
CC(=O)c1ccc(S(=O)(=O)NC(=O)NC2CCCCC2)cc1 [Acetohexamide]	FoxA2	3
CO[C@@]1(NC(=O)C(C(=O)O)c2ccc(O)cc2)C(=O)N2C(C(=O)O)=C(CSc3nnnn3C)CO[C@@H]21 (some centres unmarked) [Moxalactam disodium]	FoxA2	7.31
COc1ccc2c(c1OC)C(=O)O[C@@H]2[C@H]1c2c(cc3c(c2OC)OCO3)CCN1C [Noscapine hydrochloride]	FoxA2	1.45

Let us examine a further case.
# fold induction at 10 µM lookup, item CNCC[C@H](Oc1cccc2ccccc12)c1cccs1 [Duloxetine hydrochloride]
49.5
